B1: H2-Kb / F4 (parent complex)
chain 1: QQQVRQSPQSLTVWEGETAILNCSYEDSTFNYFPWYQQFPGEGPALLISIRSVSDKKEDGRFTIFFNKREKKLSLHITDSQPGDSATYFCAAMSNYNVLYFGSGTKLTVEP
chain 2: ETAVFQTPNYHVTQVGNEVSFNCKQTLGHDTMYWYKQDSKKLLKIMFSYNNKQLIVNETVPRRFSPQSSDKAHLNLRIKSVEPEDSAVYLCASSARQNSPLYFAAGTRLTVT
chain 3: not shown
chain 4: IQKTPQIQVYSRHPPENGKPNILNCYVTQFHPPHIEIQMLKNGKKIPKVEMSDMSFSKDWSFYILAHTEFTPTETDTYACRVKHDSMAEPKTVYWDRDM
chain 5: SIINFEKL

Variants of: B1
Experiment: % of reporter cells activated (NFAT-GFP), raw; also: test concentration or dose not given here
measuredEndpoint: ratio to parent

chain 5 I2K
0.0728
chain 5 S1M
0.0268
chain 5 S1Y
0.0768

1 = chain 5 L8W
2 = chain 5 N4A
3 = chain 5 L8I
4 = chain 5 S1G
Order the records by ratio to parent, with each subsequent value no larger than the one before. Ranked list of labels, please, in the requested order.
3, 1, 4, 2
(3: 0.903, 1: 0.491, 4: 0.188, 2: 0.0308)

1 = chain 5 L8P
2 = chain 5 E6G
Would you let me know which has the greater ratio to parent value, 1 or 2 ? Pick one and reply with its label.
1
